Target: T1, BMPRIb receptor-Fc fusion (UniProt O00238 14-126)
T1 construct: BMP receptor-Fc fusion used at 5 ug/mL; also called ALK-6
T1 sequence (looked up): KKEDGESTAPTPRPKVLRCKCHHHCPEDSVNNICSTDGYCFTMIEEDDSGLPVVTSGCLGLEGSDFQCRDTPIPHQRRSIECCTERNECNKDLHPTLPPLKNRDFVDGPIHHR
Experiment: ELISA-like plate assay, captured BMP-7 from conditioned media, receptor-Fc detection
Readout: BMPRIb binding (relative to wild type = 1.0)

# Binder, Meas value
rows = [
    ("BMP-7 variant I57L (ligand, In conditioned media; numbering on mature BMP-7) STGGKQRSQNRSKTPKNQEALRMASVAENSSSDQRQACKKHELYVSFRDLGWQDWILAPEGYAAYYCEGECAFPLNSYMNATNHAIVQTLVHFINPETVPKPCCAPTQLNAISVLYFDDSSNVILKKYRNMVVRACGCH", "1.17 relative to wild type"),
]

// next entry
# BMPRIb binding (relative to wild type = 1.0) of BMP-7 variant Q53E (ligand, In conditioned media; numbering on mature BMP-7) STGGKQRSQNRSKTPKNQEALRMASVAENSSSDQRQACKKHELYVSFRDLGWEDWIIAPEGYAAYYCEGECAFPLNSYMNATNHAIVQTLVHFINPETVPKPCCAPTQLNAISVLYFDDSSNVILKKYRNMVVRACGCH = 2.78 relative to wild type
